Give SST5/2 Selectivity for every item shown.
molecular target: SST5 (Homo sapiens); assay: Hit Hunter cAMP XS+ assay, SST5 activation via Gi (reduction of forskolin-stimulated cAMP); assay type: cell-based; settings: selectivity for SST5 over SST2
Sequence (P35346 whole entry): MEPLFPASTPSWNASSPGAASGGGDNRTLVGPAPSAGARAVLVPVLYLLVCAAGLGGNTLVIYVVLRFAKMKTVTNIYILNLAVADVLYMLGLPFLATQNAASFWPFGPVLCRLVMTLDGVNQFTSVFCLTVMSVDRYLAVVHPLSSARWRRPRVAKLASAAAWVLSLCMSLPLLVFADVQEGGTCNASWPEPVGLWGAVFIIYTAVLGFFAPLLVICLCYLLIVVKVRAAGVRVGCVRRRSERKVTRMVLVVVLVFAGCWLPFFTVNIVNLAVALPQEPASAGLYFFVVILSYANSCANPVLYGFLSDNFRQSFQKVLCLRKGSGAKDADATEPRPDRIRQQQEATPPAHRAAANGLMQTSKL
*1 amine or outer side, *2 acyl side, *3 side chain or, on linkers, in order; H or OH if unused. Where a SMILES comes first, the peptide text is derived from it. Side-chain parts run from the residue outwards. [ ]: non-standard residue; d: D form. The star is where a group is joined. Ala(piperidin-4-yl) = O=C([C@H](CC1CCN([*:3])CC1)N[*:1])[*:2]; X8 = COc1cc2c(cc1OC)CN([*:1])[C@H](C(=O)[*:2])C2; Ala(piperazin-1-yl) = N[C@@H](CN1CCNCC1)C(=O)O; Phe(4-Cl) = N[C@@H](Cc1ccc(Cl)cc1)C(=O)O; Ethylenediamine = C(CN[*:2])N[*:1]; Hyp = O=C(O)[C@@H]1C[C@@H](O)CN1; hPhe = N[C@@H](CCc1ccccc1)C(=O)O; Phg = N[C@H](C(=O)O)c1ccccc1; CO = O=C([*:1])[*:2]; Bn = c1ccc(C*)cc1
Give only the figure.

# query: SST5/2 Selectivity of entry NCCNC(=O)O[C@@H]1C[C@H]2C(=O)N[C@@H](CCc3ccccc3)C(=O)N[C@H](Cc3c[nH]c4ccccc34)C(=O)N[C@@H](CN3CCNCC3)C(=O)N[C@@H](Cc3ccc(OCc4ccccc4)cc3)C(=O)N[C@@H](Cc3ccc(Cl)cc3)C(=O)N2C1 [Example 51] (cyclo([Hyp]([CO-Ethylenediamine])[hPhe][dW][Ala(piperazin-1-yl)]Y(Bn)[Phe(4-Cl)])) 64.3

Please answer likewise for NCCCC[C@@H]1NC(=O)[C@@H](Cc2c[nH]c3ccccc23)NC(=O)[C@H](c2ccccc2)NC(=O)[C@@H]2C[C@@H](OC(=O)NCCN)CN2C(=O)[C@H](Cc2ccccc2)NC(=O)[C@H](Cc2ccc(OCc3ccccc3)cc2)NC1=O [pasireotide, reference compound] (cyclo([Hyp]([CO-Ethylenediamine])[Phg][dW]KY(Bn)F)) 3.8

Thanks! And COc1cc2c(cc1OC)CN1C(=O)[C@H](Cc3ccc(OCc4ccccc4)cc3)NC(=O)[C@H](CC3CCNCC3)NC(=O)[C@@H](Cc3c[nH]c4ccccc34)NC(=O)[C@H](CCc3ccccc3)NC(=O)[C@@H]3C[C@@H](OC(=O)NCCN)CN3C(=O)[C@@H]1C2 [Example 66] (cyclo([Hyp]([CO-Ethylenediamine])[hPhe][dW][Ala(piperidin-4-yl)]Y(Bn)[X8])) ? 7454.5
